tested on: PPARg:RXRa 90nM:30nM, anti-RXR (NR concentration 90 nM, RXRa partner concentration 30 nM); test: PBM binding z-score (relative to random genomic background probes); higher = stronger binding; sequences stand for … in GC…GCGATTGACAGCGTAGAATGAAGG
Where PBM binding z-score equals or exceeds 4, the correct label is MET; where it does not, the label is NOT MET.

Some solved entries appear below for comparison.
INSERT INTO assay_data (sequence_entry, discrete_label) VALUES
  ('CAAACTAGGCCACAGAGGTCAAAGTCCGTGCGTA', 'MET'),
  ('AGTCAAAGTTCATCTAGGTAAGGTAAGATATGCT', 'MET'),
  ('TCATATAGGTAAAGGTGAGAGTCGAACGATATGA', 'NOT MET'),
  ('CGAACTAGGGCAAGGACAGTGAATCTCCGCACGC', 'NOT MET'),
  ('TCTAGCAGGCCTGAGGGTCACTCAAGAGGTACGG', 'NOT MET');

Kindly review the next sequence as well.
Ask | Is PBM binding z-score for AATACAGGGTCATCGTAGGCCAGAGTGCGCACAG at or above 4?
Reply | MET
